Each entry below lists one item and its recorded fold less potent/active than 5 in the U251 cytotoxicity assay value.
# Tested on: U251 cancer cells
# ASSAY PROTOCOL: U251 cytotoxicity assay
# Format: cell-based, human
# MEASUREMENT CONDITIONS: versus compound 5
Kindly provide the numeric value in fold only, without the unit symbol.

Consider the worked cases shown below.
>  <STRUCTURE STRING>
COc1cccc2c(N(C)c3nc(C)nc4c3CCC4)cccc12

>  <READING UNIT>
fold

>  <VALUE REPORTED>
2

$$$$
>  <STRUCTURE STRING>
COc1cccc2cc(N(C)c3ncnc4c3CCC4)ccc12

>  <READING UNIT>
fold

>  <VALUE REPORTED>
4

$$$$
>  <STRUCTURE STRING>
COc1ccc(N(C)c2nc(C)nc3c2CCC3)c2ccccc12

>  <READING UNIT>
fold

>  <VALUE REPORTED>
2

$$$$
>  <STRUCTURE STRING>
COc1ccc2c(N(C)c3ncnc4c3CCC4)cccc2c1

>  <READING UNIT>
fold

>  <VALUE REPORTED>
7

$$$$

Then this molecule:
Prompt: What measured fold less potent/active than 5 in the U251 cytotoxicity assay is associated with COc1ccc2c(N(C)c3nc(C)nc4c3CCC4)cccc2c1 on U251 cancer cells?
Response: 5
